These data points were gathered from ChEMBL document CHEMBL1125327.

Catalogue of log10(Ki) readings, one per entry.
- Tested Target: Delta-type opioid receptor (Rattus norvegicus, UniProt P33533)
- Sequence (P33533 whole entry): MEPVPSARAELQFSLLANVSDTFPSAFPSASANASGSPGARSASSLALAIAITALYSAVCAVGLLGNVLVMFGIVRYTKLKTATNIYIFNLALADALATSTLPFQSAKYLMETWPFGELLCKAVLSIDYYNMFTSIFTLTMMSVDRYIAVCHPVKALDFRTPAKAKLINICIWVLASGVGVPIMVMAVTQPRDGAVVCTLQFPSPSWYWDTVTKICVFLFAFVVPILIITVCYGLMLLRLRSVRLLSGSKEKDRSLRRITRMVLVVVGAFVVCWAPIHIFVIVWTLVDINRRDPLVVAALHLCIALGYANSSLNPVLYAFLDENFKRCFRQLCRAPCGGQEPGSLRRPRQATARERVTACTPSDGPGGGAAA
- Assay Procedure: Inhibition of [3H]- ]DSLET binding to Opioid receptor delta 1 from rat brain membrane
Non-standard residues stand in square brackets, D forms with d. Residues, ends and D or L forms follow the SMILES beside them. Tic = O=C(O)[C@@H]1Cc2ccccc2CN1; Aic = NC1(C(=O)O)Cc2ccccc2C1; Nle = CCCC[C@H](N)C(=O)O
Units before log transform: nM; reported quantity: Ki; transform: log10.

Prompt line: State log10(Ki) (Delta-type opioid receptor (Rattus norvegicus, UniProt P33533)) of CC(C)[C@H](NC(=O)[C@H](CC(=O)O)NC(=O)C1(NC(=O)[C@@H](C)NC(=O)[C@@H](N)Cc2ccc(O)cc2)Cc2ccccc2C1)C(=O)N[C@H](C(=O)NCC(N)=O)C(C)C (H-Y[dA][Aic]DVVG-NH2) .
Response line: 0.70

Others:
Prompt line: Write down measured log10(Ki) (Delta-type opioid receptor (Rattus norvegicus, UniProt P33533)) for this molecule. CC(C)[C@H](NC(=O)[C@H](CC(=O)O)NC(=O)C1(NC(=O)[C@@H](C)NC(=O)[C@@H](N)Cc2ccc(O)cc2)CCc2ccccc2C1)C(=O)N[C@H](C(=O)NCC(N)=O)C(C)C (stereo in doubt; 2)
Response line: 0.73

Prompt line: // output log10(Ki); input `CC(C)[C@H](NC(=O)[C@H](CC(=O)O)NC(=O)[C@@H](Cc1ccccc1)NC(=O)[C@@H](C)NC(=O)[C@@H](N)Cc1ccc(O)cc1)C(=O)N[C@H](C(=O)NCC(N)=O)C(C)C` ; system Delta-type opioid receptor (Rattus norvegicus, UniProt P33533)
Response line: 1.83

Prompt line: Retrieve log10(Ki) on Delta-type opioid receptor (Rattus norvegicus, UniProt P33533); query CC(C)[C@H](NC(=O)[C@H](CC(=O)O)NC(=O)[C@H](Cc1ccccc1)NC(=O)[C@@H]1Cc2ccccc2CN1C(=O)[C@@H](N)Cc1ccc(O)cc1)C(=O)N[C@H](C(=O)NCC(N)=O)C(C)C (H-Y[Tic]FDVVG-NH2)
Response line: 0.81

Prompt line: Retrieve log10(Ki) on Delta-type opioid receptor (Rattus norvegicus, UniProt P33533); query CCCC[C@H](NC(=O)[C@H](CC(C)C)NC(=O)[C@H](Cc1ccccc1)NC(=O)[C@H](Cc1ccccc1)NC(=O)[C@@H]1Cc2ccccc2CN1C(=O)[C@@H](N)Cc1ccc(O)cc1)C(=O)N[C@@H](CC(=O)O)C(N)=O (H-Y[Tic]FFL[Nle]D-NH2)
Response line: 0.92
